tested on: Proteus vulgaris; experiment: Aerobic antibacterial MIC, standard dilution technique; assay type: cell-based; settings: clinical isolate, value in parentheses, read-out: Minimum inhibitory concentration (MIC) Proteus vulgaris
assay-readout: MIC (µM)
Numeric answer only, unit µM assumed.

compound	MIC (µM)
O=C(N[C@@H](Cc1ccccc1)C(=O)O)c1cnccn1 [C00008]	0.22
CC(C)C[C@H](NC(=O)c1cnccn1)C(=O)O [C00004]	33.7
O=C(NC(Cc1ccccc1)C(=O)O)c1cnccn1 (stereo not drawn) [C00009]	0.22
CC(C)[C@H](NC(=O)c1cnccn1)C(=O)O [C00005]	0.27
NC(=O)c1cnccn1 [C00001]	65

Value of MIC reported for the compound O=C(NNC(=O)[C@H](Cc1ccccc1)NC(=O)c1cnccn1)c1ccncc1 [C00015] is 0.15

// data source = paper PMC9065575
